- System: MPNST complex spheroid with HUVEC/MSC, growth, % test/control
- run_description: Anticancer human tumor MPNST cell line growth inhibition [Asc];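 note: compounds left on spheroids for seven days before reading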
- experimental_context: second compound 0.0949 µM; first compound 0.1 µM; stronger effect = lower value
reported_endpoint: viability, T/C (%)
Give your result in % as a bare value.

Completed entries (count: 3):
C=C(F)C(=O)N1CCN(c2nc(OCC3CCCN3C)nc3c2CCN(c2cccc4cccc(Cl)c24)C3)CC1CC#N (centres undefined) + CCN1C(C(=O)NC23CCC(C(=O)O)(CC2)CC3)C(c2cccc(Cl)c2F)C2(C(=O)Nc3cc(Cl)ccc32)C12CCCCC2 :: 59
Cn1ncnc1[C@H]1c2n[nH]c(=O)c3cc(F)cc(c23)N[C@@H]1c1ccc(F)cc1 + CCN1C(C(=O)NC23CCC(C(=O)O)(CC2)CC3)C(c2cccc(Cl)c2F)C2(C(=O)Nc3cc(Cl)ccc32)C12CCCCC2 :: 52.1
COc1c(OCCCN2CCOCC2)ccc2c3n(c(=NC(=O)c4cnc(N)nc4)nc12)CCN3 + CCN1C(C(=O)NC23CCC(C(=O)O)(CC2)CC3)C(c2cccc(Cl)c2F)C2(C(=O)Nc3cc(Cl)ccc32)C12CCCCC2 :: 36.5

Next compound, viability, T/C to be filled in.
Task: Quick one: viability, T/C of C=CC(=O)N1CCN(c2nc(=O)n(-c3c(C)ccnc3C(C)C)c3nc(-c4c(O)cccc4F)c(F)cc23)C(C)C1 (centres undefined) + CCN1C(C(=O)NC23CCC(C(=O)O)(CC2)CC3)C(c2cccc(Cl)c2F)C2(C(=O)Nc3cc(Cl)ccc32)C12CCCCC2 ?
Result: 85.3

====

The reader will find reported IC50 values listed item by item below.
- Tested on: MPNST complex spheroid with HUVEC/MSC, growth, % test/control
- run_description: Anticancer human tumor MPNST cell line growth inhibition [Asc];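 note: compounds left on spheroids for seven days before reading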
- experimental_context: curve of first compound; second compound 0.1 µM

Task: Quick one: IC50 of CCN1C(C(=O)NC23CCC(C(=O)O)(CC2)CC3)C(c2cccc(Cl)c2F)C2(C(=O)Nc3cc(Cl)ccc32)C12CCCCC2 (configuration not stated) + CNC(C)C(=O)NC1CN(S(=O)(=O)c2cccc(S(=O)(=O)N3CCC4CCC(C(=O)NC(c5ccccc5)c5ccccc5)N4C(=O)C(NC(=O)C(C)NC)C3)c2)CCC2CCC(C(=O)NC(c3ccccc3)c3ccccc3)N2C1=O ?
Result: > 3000 nM

Task: Quick one: IC50 of Cn1ncnc1[C@H]1c2n[nH]c(=O)c3cc(F)cc(c23)N[C@@H]1c1ccc(F)cc1 + CNC(C)C(=O)NC1CN(S(=O)(=O)c2cccc(S(=O)(=O)N3CCC4CCC(C(=O)NC(c5ccccc5)c5ccccc5)N4C(=O)C(NC(=O)C(C)NC)C3)c2)CCC2CCC(C(=O)NC(c3ccccc3)c3ccccc3)N2C1=O ?
Result: 82.1 nM

====

- Test system: MPNST complex spheroid with HUVEC/MSC, growth, % test/control
- run_description: Anticancer human tumor MPNST cell line growth inhibition [Asc];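 note: compounds left on spheroids for seven days before reading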
- experimental_context: second compound 0.03 µM; first compound 0.316 µM; stronger effect = lower value
reported_endpoint: viability, T/C (%)
Give your result in % as a bare value.

Completed entries (count: 5):
CNC(C)C(=O)NC1CN(S(=O)(=O)c2cccc(S(=O)(=O)N3CCC4CCC(C(=O)NC(c5ccccc5)c5ccccc5)N4C(=O)C(NC(=O)C(C)NC)C3)c2)CCC2CCC(C(=O)NC(c3ccccc3)c3ccccc3)N2C1=O (stereo not drawn) + CCN1C(C(=O)NC23CCC(C(=O)O)(CC2)CC3)C(c2cccc(Cl)c2F)C2(C(=O)Nc3cc(Cl)ccc32)C12CCCCC2 :: 106
C=C(F)C(=O)N1CCN(c2nc(OCC3CCCN3C)nc3c2CCN(c2cccc4cccc(Cl)c24)C3)CC1CC#N (stereo not drawn) + CCN1C(C(=O)NC23CCC(C(=O)O)(CC2)CC3)C(c2cccc(Cl)c2F)C2(C(=O)Nc3cc(Cl)ccc32)C12CCCCC2 :: 65.2
CCN1CCN(Cc2ccc(Nc3ncc(F)c(-c4cc(F)c5nc(C)n(C(C)C)c5c4)n3)nc2)CC1 + CCN1C(C(=O)NC23CCC(C(=O)O)(CC2)CC3)C(c2cccc(Cl)c2F)C2(C(=O)Nc3cc(Cl)ccc32)C12CCCCC2 :: 64.5
C=CC(=O)N1CCN(c2nc(=O)n(-c3c(C)ccnc3C(C)C)c3nc(-c4c(O)cccc4F)c(F)cc23)C(C)C1 (stereo not drawn) + CCN1C(C(=O)NC23CCC(C(=O)O)(CC2)CC3)C(c2cccc(Cl)c2F)C2(C(=O)Nc3cc(Cl)ccc32)C12CCCCC2 :: 73.3
O=C(c1ccc(F)c(F)c1Nc1ccc(I)cc1F)N1CC(O)([C@@H]2CCCCN2)C1 + CCN1C(C(=O)NC23CCC(C(=O)O)(CC2)CC3)C(c2cccc(Cl)c2F)C2(C(=O)Nc3cc(Cl)ccc32)C12CCCCC2 :: 65.9

Task: Quick one: viability, T/C of COc1c(OCCCN2CCOCC2)ccc2c3n(c(=NC(=O)c4cnc(N)nc4)nc12)CCN3 + CCN1C(C(=O)NC23CCC(C(=O)O)(CC2)CC3)C(c2cccc(Cl)c2F)C2(C(=O)Nc3cc(Cl)ccc32)C12CCCCC2 ?
Result: 25.9

Task: Quick one: viability, T/C of O=C(c1cc(Cc2n[nH]c(=O)c3ccccc23)ccc1F)N1CCN(C(=O)C2CC2)CC1 + CCN1C(C(=O)NC23CCC(C(=O)O)(CC2)CC3)C(c2cccc(Cl)c2F)C2(C(=O)Nc3cc(Cl)ccc32)C12CCCCC2 ?
Result: 101

Task: Quick one: viability, T/C of C#Cc1c(F)ccc2cc(O)cc(-c3ncc4c(N5CC6CCC(C5)N6)nc(OCC56CCCN5CC(F)C6)nc4c3F)c12 (stereo not drawn) + CCN1C(C(=O)NC23CCC(C(=O)O)(CC2)CC3)C(c2cccc(Cl)c2F)C2(C(=O)Nc3cc(Cl)ccc32)C12CCCCC2 ?
Result: 79.2
